# System: NOMO1
# measurement notes: cell viability relative to DMSO control; higher = less cytotoxic
# experimental setup: RPMI 5 mM glucose + 10% FBS; 48 h; 0.19 µM
assay readout: cell viability (%)
Reply with just the number (in %).

Recorded cell viability, per entry:
For the compound CCn1c(-c2nonc2N)nc2c(C#CC(C)(C)O)ncc(OC[C@H]3CCCNC3)c21 , what cell viability is on record? 87.3

Another: C[C@]12Cc3cn[nH]c3C[C@@H]1CC[C@@H]1[C@@H]2CC[C@@]2(C)[C@H]1CC[C@]2(C)O 103

Next:
For the compound CCC(C)N1\N=C/N(C1=O)C2=CC=C(C=C2)N3CCN(CC3)C4=CC=C(OC[C@H]5CO[C@@](C[N]6C=NC=N6)(O5)C7=CC=C(Cl)C=C7Cl)C=C4 (some centres undefined) , what cell viability is on record? 121

Another: CCOC(=O)[C@@]1(CCCCCCOc2ccc(Cl)cc2)CO1 115

====

# System: P12-Ichikawa
# measurement notes: cell viability relative to DMSO control; higher = less cytotoxic
# experimental setup: RPMI 5 mM glucose + 10% FBS; 48 h; 0.19 µM
assay readout: cell viability (%)
Reply with just the number (in %).

Recorded cell viability, per entry:
For the molecule CC(C)=CCC/C(C)=C/CC/C(C)=C/CC/C(C)=C/CC/C(C)=C/CC/C(C)=C/CC/C(C)=C/CC/C(C)=C/CC/C(C)=C/CO , what cell viability is on record? 98.7

Another: O=C(CCCCCCC(=O)Nc1cccnc1)NO 95.4

Another: OC1=CC2=C(C=C1)C(=O)\C(=C(O2)\C3=CC(=C(O)C=C3)O)O 96.5

Next:
For the molecule O=C([O-])C[C@H](O)C[C@H](O)/C=C/c1c(C2CC2)nc2ccccc2c1-c1ccc(F)cc1 , what cell viability is on record? 116

Another: CCOC(=O)[C@@]1(CCCCCCOc2ccc(Cl)cc2)CO1 111

Another: C=C1C(=O)[C@@]23C(CC[C@@H]1[C@H]2O)[C@@]12CO[C@]3(O)[C@@H](O)[C@@H]1C(C)(C)CC[C@@H]2O (stereo partly drawn) 118

Another: [O-]C(=O)C/1=N/C(=O)NC(=O)N1 92.3

Another: CC(C)N(C[C@H]1O[C@@H](n2cnc3c(N)ncnc32)[C@H](O)[C@@H]1O)[C@H]1C[C@@H](CCc2nc3cc(C(C)(C)C)ccc3[nH]2)C1 105

====

# Test system: NOMO1
# measurement notes: AUC of viability dose-response curve (% viability x log10 dose units); higher = less sensitive
# experimental setup: HPLM + 10% dialyzed FBS; 48 h
AUC of viability dose-response curve strictly under 300 means rule met; at 300 or over means rule not met.

Recorded results for 3 compounds are shown here.
For this compound, is AUC of viability dose-response curve lower than 300? OC[C@H]1O[C@H](C[C@@H]1O)N2\C=C(F)/C(=O)NC2=O rule met

Another: CCN(CC)CCOc1ccc(Cc2ccccc2)cc1 rule not met

Another: CC[S+](=O)([O-])Nc1ccc2c(c1)/C(=C(/Nc1ccc(CN3CCCCC3)cc1)c1ccccc1)C(=O)N2 rule not met

Next:
For this compound, is AUC of viability dose-response curve lower than 300? CC(C)OC(=O)C(C)(C)Oc1ccc(C(=O)c2ccc(Cl)cc2)cc1 rule not met

Another: Cc1ccc([N+](=O)[O-])cc1[S+](=O)([O-])N(C)/N=C/c1cnc2ccc(Br)cn12 rule met

Another: CC\12CCC(=O)\C=C1CCC3C2CCC4(C)C3CCC4(O)C#C (centres undefined) rule not met

Another: CC(C)N(C[C@H]1O[C@@H](n2cnc3c(N)ncnc32)[C@H](O)[C@@H]1O)[C@H]1C[C@@H](CCc2nc3cc(C(C)(C)C)ccc3[nH]2)C1 rule not met

Another: COc1ccc(C(=O)N2CCCC2=O)cc1 rule not met

Another: N\C1=N\C2=C(N=C[N]2COCCO)C(=O)N1 rule not met

====

# Test system: P12-Ichikawa
# measurement notes: cell viability relative to DMSO control; higher = less cytotoxic
# experimental setup: HPLM + 10% dialyzed FBS; 48 h; 46.1 µM
cell viability strictly under 40% means MET; at 40% or over means NOT MET.

For this compound, is cell viability lower than 40%? N[S+](=O)([O-])c1cc2c(cc1Cl)NC(C(Cl)Cl)N[S+]2(=O)[O-] (configuration not stated) NOT MET

Another: C=C1C(=O)[C@@]23C(CC[C@@H]1[C@H]2O)[C@@]12CO[C@]3(O)[C@@H](O)[C@@H]1C(C)(C)CC[C@@H]2O (some centres not stated) MET

Another: c1ccc2c(Cc3c[nH]c4ccccc34)c[nH]c2c1 MET

Another: C/C(=N\NC(=S)N1CCC1)c1ccccn1 MET

Another: CC(=O)N[C@@H]1[C@@H](NC(N)=N)\C=C(/O[C@H]1[C@H](O)[C@H](O)CO)C(O)=O NOT MET

Attention now shifts to the item below.
For this compound, is cell viability lower than 40%? O=C(CCc1ccc(O)cc1)c1c(O)cc(O)cc1O NOT MET

====

# System: P12-Ichikawa
# measurement notes: cell viability relative to DMSO control; higher = less cytotoxic
# experimental setup: HPLM + 10% dialyzed FBS; 48 h; 5.12 µM
# cell viability annotations
Reply with just the number (in %).

Recorded cell viability, per entry:
For the compound CCC(C)N1\N=C/N(C1=O)C2=CC=C(C=C2)N3CCN(CC3)C4=CC=C(OC[C@H]5CO[C@@](C[N]6C=NC=N6)(O5)C7=CC=C(Cl)C=C7Cl)C=C4 (some centres not stated) , what cell viability is on record? 103

Another: O=C(CC12CC3CC(CC(C3)C1)C2)Nc1cccc2nc(NCCNCCO)ccc12 95.7

Another: OC[C@H]1O[C@H](C[C@@H]1O)N2\C=C(F)/C(=O)NC2=O 20.6

Another: C[C@@H]1O[C@@H](O[C@H]2C[C@@H](O)[C@]3(CO)[C@H]4[C@H](O)C[C@]5(C)[C@@H](C6=CC(=O)OC6)CC[C@]5(O)[C@@H]4CC[C@]3(O)C2)[C@H](O)[C@H](O)[C@H]1O 12.7

Another: N#C/C(=C\c1ccc(O)c(O)c1)C(=O)NCc1ccccc1 102

Another: CN1CCN(c2c(F)cc3c(=O)c(C(=O)O)cn(CCF)c3c2F)CC1 121

Next:
For the compound Cc1cc(OCCC[S+](C)(=O)[O-])cc(C)c1-c1cccc(COc2ccc3c(c2)OC[C@H]3CC(=O)O)c1 , what cell viability is on record? 91.6

Another: Cc1nn(C)c(COc2ccc(N3CCN([S+](=O)([O-])N(C)C)CC3)cc2)c1-c1cccc2c(CCCOc3cccc4ccccc34)c(C(=O)O)n(CCN3CCOCC3)c12 29.9

Another: CCN1\C=C(\C(O)=O)C(=O)C2=C1N=C(N3CCNCC3)C(=C2)F 91.4

Another: C[C@@H]1CN(Cc2ccc(F)cc2)[C@@H](C)CN1C(=O)c1cc2c(C(=O)C(=O)N(C)C)cn(C)c2cc1Cl 125

Another: CC[N+](CC)(CC)CCOc1cccc(OCC[N+](CC)(CC)CC)c1OCC[N+](CC)(CC)CC 100

Another: N[S+](=O)([O-])c1cc2c(cc1Cl)NC(C(Cl)Cl)N[S+]2(=O)[O-] (configuration not stated) 114

Another: O=C(CCCCCCC(=O)Nc1cccnc1)NO 82.1

Another: C[C@@H](NCCCc1cccc(C(F)(F)F)c1)c1cccc2ccccc12 113

Another: Clc1cccc(-n2nnnc2NCc2ccccc2Oc2ccccn2)c1Cl 133

Another: CC(C)(F)C[C@H](N[C@@H](c1ccc(-c2ccc([S+](C)(=O)[O-])cc2)cc1)C(F)(F)F)C(=O)NC1(C#N)CC1 112

Another: CCc1cc2c(cc1N1CCC(N3CCOCC3)CC1)C(C)(C)c1[nH]c3cc(C#N)ccc3c1C2=O 116

====

# System: NOMO1
# measurement notes: cell viability relative to DMSO control; higher = less cytotoxic
# experimental setup: RPMI 5 mM glucose + 10% dialyzed FBS; 48 h; 0.19 µM
# cell viability annotations
Reply with just the number (in %).

Recorded cell viability, per entry:
For the molecule CCn1c(-c2nonc2N)nc2c(C#CC(C)(C)O)ncc(OC[C@H]3CCCNC3)c21 , what cell viability is on record? 84.3

Another: OC1=CC2=C(C=C1)C(=O)\C(=C(O2)\C3=CC(=C(O)C=C3)O)O 92

Another: O=C(O)CCCCC(CCSCc1ccccc1)SCc1ccccc1 (stereo not given) 134

Another: CC\12CCC(=O)\C=C1CCC3C2CCC4(C)C3CCC4(O)C#C (stereo not given) 96.1

Another: CCc1cc(C(N)=S)ccn1 121

Another: COc1cc(Nc2c(C#N)cnc3cc(OCCCN4CCN(C)CC4)c(OC)cc23)c(Cl)cc1Cl 114

Another: COc1ccc(C(=O)c2c(C)n(CCN3CCOCC3)c3ccccc23)cc1 76.9

Another: CN(C)C1=CC(=CC=C1)C\2=C\3C(=O)N(NC3=C/C(=O)N2C)C4=CC=CC=C4Cl 112

Next:
For the molecule [O-]C(=O)C/1=N/C(=O)NC(=O)N1 , what cell viability is on record? 92.8

Another: OC1=CC=C(C=C1)\C2=C\OC3=C(C(=CC(=C3)O)O)C2=O 117
